# Test system: fruit of grape (variety: Red Globe)
# condition summary: 14 days later
Give measured Estimated amount (g) of transpiration per 100 g of fruit on date of application for each item. Keep answers brief.
One number for each entry, in g.

Recorded results for 4 compounds are shown here.
O=C([O-])[O-].[Na+].[Na+] [Sodium carbonate, sodium carbonate] ... 34.6
O=C([O-])O.[K+] [Potassium hydrogen carbonate, potassium hydrogen carbonate] ... 42.6
O=C([O-])O.[Na+] [Sodium hydrogen carbonate, sodium hydrogen carbonate] ... 31.5
O=P([O-])([O-])[O-].[K+].[K+].[K+] [Tripotassium phosphate, tripotassium phosphate] ... 37.6

# input for lookup
Ask: Kindly indicate its recorded Estimated amount (g) of transpiration per 100 g of fruit on date of application. Item: O=C([O-])[O-].[K+].[K+] [Potassium carbonate, potassium carbonate]
Result: 45.8

====

# System: clusters of grape (variety: Crimson)
# assay details: Estimated transpiration ratio of grape clusters (Example 9)
# Assay type: in vivo
# condition summary: 10 g/L; 8 days after treatment
outcome measure: Estimated transpiration ratio (%) Second
Answers are plain numbers, in %.

CC(=O)[O-].[K+] [Potassium acetate, potassium acetate] ... 35
O=C([O-])O.[K+] [Potassium hydrogen carbonate, potassium hydrogen carbonate] ... 28
CC(O)C(=O)[O-].[Na+] (racemic) [DL-Sodium lactate, reference compound] ... 25
O=C([O-])O.[Na+] [Sodium hydrogen carbonate, sodium hydrogen carbonate] ... 28
O=C([O-])CC(O)(CC(=O)[O-])C(=O)[O-].[K+].[K+].[K+] [Tripotassium citrate] ... 28

For every item in the list below, what is its measured Estimated transpiration ratio (%) Second?
1. CC(=O)[O-].O.O.O.[Na+] [Sodium acetate trihydrate]
2. N.N.O=C(O)O [Ammonium carbonate, reference compound]

Result:
1: 33; 2: 28

Dear reader, for each entry below, please note its Estimated transpiration ratio (%) Second.
1. N.N.O=S(=O)(O)O [Ammonium sulfate, reference compound]
2. O=P([O-])([O-])O.[Na+].[Na+] [Disodium hydrogen phosphate, disodium hydrogen phosphate]
3. O=C([O-])[O-].[K+].[K+] [Potassium carbonate, potassium carbonate]

Result:
23
28
31

====

# Test system: fruit of grape (variety: Red Globe)
# condition summary: 5 days later (applied Apr. 27)
Assignment: determine reported Mass (g) of fruit per 100 g of fruit on date of application for the given molecules.
Numbers only, in g.

The examples below pair each entry with its known result.
O=P([O-])([O-])[O-].[K+].[K+].[K+] [Tripotassium phosphate, tripotassium phosphate] ... 84.1
O=C([O-])[O-].[Na+].[Na+] [Sodium carbonate, sodium carbonate] ... 85.9
O=C([O-])[O-].[K+].[K+] [Potassium carbonate, potassium carbonate] ... 81.2
O=C([O-])O.[K+] [Potassium hydrogen carbonate, potassium hydrogen carbonate] ... 82.6

Next molecule, please.
Ask: Answer with reported Mass (g) of fruit per 100 g of fruit on date of application of O=C([O-])O.[Na+] [Sodium hydrogen carbonate, sodium hydrogen carbonate]
Result: 87.6
